molecular target: LXR β LBD protein (Homo sapiens (Human), UniProt P55055); experiment: biochemical; type: biochemical; conditions: agonist mode
Sequence (P55055 222-460): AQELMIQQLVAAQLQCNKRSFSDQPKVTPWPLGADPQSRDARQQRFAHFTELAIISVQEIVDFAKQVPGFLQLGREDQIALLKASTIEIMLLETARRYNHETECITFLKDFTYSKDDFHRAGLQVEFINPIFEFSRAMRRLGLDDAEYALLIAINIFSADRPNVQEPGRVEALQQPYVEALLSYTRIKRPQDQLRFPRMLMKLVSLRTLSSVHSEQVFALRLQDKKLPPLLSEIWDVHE
value-type: FRET LXRβ efficacy (%)

| compound | measurement-target | experimental-result |
| --- | --- | --- |
| CS(=O)(=O)c1cc(N2CCN(C[C@H]3CC[C@H](C(F)(F)F)CC3)[C@@H](c3ccccc3)C2)ccc1C(N)=O (single isomer, unassigned) | LXR β LBD protein (Homo sapiens (Human), UniProt P55055) | 85 |
| CS(=O)(=O)c1cccc(N2CCN(Cc3ccc(C(F)(F)F)cn3)[C@H](c3ccccc3)C2)c1 | LXR β LBD protein (Homo sapiens (Human), UniProt P55055) | 50 |
| CS(=O)(=O)c1cc(N2CCN(C[C@H]3CC[C@@H](C(F)(F)F)CC3)[C@@H](c3ccccc3)C2)ccc1C(N)=O (single isomer, unassigned) | LXR β LBD protein (Homo sapiens (Human), UniProt P55055) | 61 |
| CS(=O)(=O)c1cccc(N2CCN(Cc3ccc(C(F)(F)F)cn3)[C@@H](c3ccccc3)C2)c1 | LXR β LBD protein (Homo sapiens (Human), UniProt P55055) | 34 |
| NS(=O)(=O)c1cccc(N2CCN(C[C@H]3CC[C@H](C(F)(F)F)CC3)[C@H](c3ccccc3)C2)c1 (single isomer, unassigned) | LXR β LBD protein (Homo sapiens (Human), UniProt P55055) | 25 |
| CS(=O)(=O)c1cccc(N2CCN(C[C@H]3CC[C@H](C(F)(F)F)CC3)[C@@H](c3ccccc3)C2)c1 (single isomer, unassigned) | LXR β LBD protein (Homo sapiens (Human), UniProt P55055) | 82 |
| NS(=O)(=O)c1cccc(N2CCN(C[C@H]3CC[C@@H](C(F)(F)F)CC3)[C@H](c3ccccc3)C2)c1 (single isomer, unassigned) | LXR β LBD protein (Homo sapiens (Human), UniProt P55055) | 39 |
| CC(C)[C@@H]1CN(c2ccc(F)c(S(C)(=O)=O)c2)CCN1C(=O)OC(C)(C)C | LXR β LBD protein (Homo sapiens (Human), UniProt P55055) | 74 |
| NS(=O)(=O)c1cccc(N2CCN(C[C@H]3CC[C@H](C(F)(F)F)CC3)[C@@H](c3ccccc3)C2)c1 (single isomer, unassigned) | LXR β LBD protein (Homo sapiens (Human), UniProt P55055) | 30 |
